tested target: T1, human neuropeptide Y2 receptor (human, UniProt P49146 1-381)
T1 sequence (looked up): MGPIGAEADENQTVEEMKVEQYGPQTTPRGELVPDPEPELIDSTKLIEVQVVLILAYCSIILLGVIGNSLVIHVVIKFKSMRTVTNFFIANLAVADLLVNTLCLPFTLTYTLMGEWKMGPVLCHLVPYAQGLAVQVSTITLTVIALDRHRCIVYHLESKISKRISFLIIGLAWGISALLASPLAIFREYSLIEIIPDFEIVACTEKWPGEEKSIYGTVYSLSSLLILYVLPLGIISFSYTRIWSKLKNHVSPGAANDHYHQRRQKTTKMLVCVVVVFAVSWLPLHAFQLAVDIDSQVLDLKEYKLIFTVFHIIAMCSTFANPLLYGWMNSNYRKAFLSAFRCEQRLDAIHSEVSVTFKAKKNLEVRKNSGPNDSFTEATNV
protocol summary: cell-based or functional assay
Starred links: 1 amine or outer side, 2 acyl side, 3 side chain; linkers in the order of their positions; H or OH if unused. Non-standard residues stand in square brackets, D forms with d. Groups on a side chain read outwards from the residue. No end group written: not given here. *: point of attachment. C20 diacid = O=C(O)CCCCCCCCCCCCCCCCCCC(=O)*; C18 diacid = O=C(O)CCCCCCCCCCCCCCCCC(=O)*; γGlu = O=C(O)[C@H](CCC(=O)[*:2])N[*:1]; εLys = N[C@@H](CCCCN[*:1])C(=O)[*:2]; AEEA = NCCOCCOCC(=O)O; Aib = CC(C)(N)C(=O)O; OEG = OEG spacer
Each entry below carries its recorded EC50 hNPY2R 100% hP (CreLuc).
Please respond with the number in nM and leave the unit unwritten.

Sample records with EC50 hNPY2R 100% hP (CreLuc):
Record Y[Aib]EGTFTSDYSI[Aib]LEKQAQ[Aib]AFVEWLIK([γGlu-γGlu-γGlu-γGlu-C18 diacid])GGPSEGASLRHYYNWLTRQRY-NH2 (also: TFA salt) [Compound 294] . Reported EC50 hNPY2R 100% hP (CreLuc): 55.2

Entry Y[Aib]EGTFTSDYSI[Aib]LEKQAQ[Aib]AFVQWLIK([AEEA-AEEA-γGlu-γGlu-γGlu-γGlu-C18 diacid])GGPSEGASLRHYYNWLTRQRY-NH2 (also: TFA salt) [Compound 270] , EC50 hNPY2R 100% hP (CreLuc) reported as 21.1

Next:
Value of EC50 hNPY2R 100% hP (CreLuc) reported for the binder YXEGTFTSDYSIXLEKQAQXAFVEWLIKGGPSEGASLRHYYNWLTRQRY (Aib at 2, 13, 20; K28 side chain acylated with C20DA-gGlu-gGlu-gGlu-gGlu-gGlu; C-terminal amide (NH2)) [Compound 289] is 56.3

The binder listed as Y[Aib]EGTFTSDYSI[Aib]LEKQAQ[Aib]AFVEWLIK([OEG-OEG-Glu-Glu-Glu-C18 diacid])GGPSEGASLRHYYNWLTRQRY-NH2 (also: TFA salt) [Compound 298] shows EC50 hNPY2R 100% hP (CreLuc) equal to 66.5

# EC50 hNPY2R 100% hP (CreLuc) (binder: Y[Aib]EGTFTSDYSI[Aib]LEKQAQ[Aib]AFVEWLIK([εLys-γGlu-Glu-γGlu-γGlu-γGlu-C20 diacid])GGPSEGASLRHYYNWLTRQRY-NH2 (also: TFA salt) [Compound 290] ) is 46.3

response.value for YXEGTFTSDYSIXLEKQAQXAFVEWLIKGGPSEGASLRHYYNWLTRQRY (Aib at 2, 13, 20; K28 side chain acylated with C18DA-gGlu-gGlu-gGlu-gGlu-gGlu; C-terminal amide (NH2)) [Compound 292] (field: EC50 hNPY2R 100% hP (CreLuc)) = 70

Looking up Y[Aib]EGTFTSDYSI[Aib]LEKQAQ[Aib]AFVEWLIKGGPSEGASLRHYYNWLTRQRY-NH2 (not fully specified (residue 28); also: TFA salt) [Compound 295] , I found its EC50 hNPY2R 100% hP (CreLuc) recorded as 30.2

What the record says about Y[Aib]EGTFTSDYSI[Aib]LEKQAQ[Aib]AFVEWLIK([AEEA-AEEA-γGlu-γGlu-γGlu-γGlu-C18 diacid])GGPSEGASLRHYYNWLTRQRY-NH2 (also: TFA salt) [Compound 297] : EC50 hNPY2R 100% hP (CreLuc) is 40.5

EC50 hNPY2R 100% hP (CreLuc) recorded for this binder, Y[Aib]EGTFTSDYSI[Aib]LEKQAQ[Aib]AFVEWLIK([εLys-γGlu-γGlu-γGlu-γGlu-γGlu-C18 diacid])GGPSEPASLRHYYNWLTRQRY-NH2 (also: TFA salt) [Compound 263] , is 83.2
